tested on: CEM cells HIV-1 protection, formazan growth assay; test: NCI AIDS Antiviral Assay; conditions: measured here: growth of uninfected CEM cells
pIC50: −log10 of the molar value.
PROPERTY NAME: pIC50

COMPOUND	ASSAYED TARGET	REL	ENDPOINT RESULT
C[C@@H]1C[C@@H](O)[C@@]2(O)C13CC(=O)OC(C3)[C@@H](C)[C@@]2(C)CO (stereo partly drawn)	CEM cells HIV-1 protection, formazan growth assay	<	3.70
COc1cc(/C=C2\C(=O)N(c3ccc(NC(C)=O)cc3)C(c3ccccc3)S2(=O)=O)cc(OC)c1OC (stereo not drawn)	CEM cells HIV-1 protection, formazan growth assay	=	4.06
O=c1[nH]nc(-c2ccccc2)n1-c1ccncc1	CEM cells HIV-1 protection, formazan growth assay	<	3.70
CCO/C=C/C=C(C(=O)OCC)C(=O)OCC	CEM cells HIV-1 protection, formazan growth assay	<	3.83
CC12CCC([C@H](C(O)C3CCCCC3)C1=O)C2(C)C (stereo partly drawn)	CEM cells HIV-1 protection, formazan growth assay	=	4.28
CCCCCCOC(=O)c1[nH]c(=O)n(CCCCCC)c(=O)c1NC(=O)CNc1ccc2c(=O)c3ccccc3[nH]c2c1	CEM cells HIV-1 protection, formazan growth assay	=	6.00
O=C(c1ccc(Cl)cc1Cl)N(C(=O)N1CCC(c2ccccc2)CC1)c1ccccc1	CEM cells HIV-1 protection, formazan growth assay	<	3.70
CCOC(=O)C1(C(=O)OCC)CSC1	CEM cells HIV-1 protection, formazan growth assay	<	3.51
C/C(N=NC(=S)N1CCCCCC1)=C1\C=CC=CN1O	CEM cells HIV-1 protection, formazan growth assay	=	5.67
O=C(/C=C/c1ccccc1)CCC1C(=O)NC(=O)NC1=O	CEM cells HIV-1 protection, formazan growth assay	<	4.18
COC1=Nc2ccccc2S(=O)(=O)C=C1	CEM cells HIV-1 protection, formazan growth assay	=	6.09
CS1(C)=Nc2c([N+](=O)[O-])cc([N+](=O)[O-])cc2S(=O)(=O)N=1	CEM cells HIV-1 protection, formazan growth assay	=	4.23
COC(=O)C1=NOC2C(=O)N(c3ccccc3)C(=O)C12 (stereo not drawn)	CEM cells HIV-1 protection, formazan growth assay	<	3.70
c1ccc(-c2ccccc2SSc2ccccc2-c2ccccc2)cc1	CEM cells HIV-1 protection, formazan growth assay	=	5.27
CC(=O)O[C@@H]1[C@H](OC(=O)CC(C)C)c2c(ccc3ccc(=O)oc23)OC1(C)C	CEM cells HIV-1 protection, formazan growth assay	=	4.27
COCCCCCCCCCCCC(=O)O	CEM cells HIV-1 protection, formazan growth assay	<	3.70
CC1(C)C(=O)C(C)(C)C1O	CEM cells HIV-1 protection, formazan growth assay	<	2.75
CN(CCN(C)C(=O)CCn1cc(F)c(=O)[nH]c1=O)C(=O)CCn1cc(F)c(=O)[nH]c1=O	CEM cells HIV-1 protection, formazan growth assay	<	4.24
C=C1CCCCCCCCC/C=C/1SCCCSC	CEM cells HIV-1 protection, formazan growth assay	<	3.70
CN1C2CC(=O)CC1[C@@H]1OC(c3ccccc3)O[C@H]21 (stereo partly drawn)	CEM cells HIV-1 protection, formazan growth assay	<	3.70
CCCCCCCCCCCCCCCCOC1OC(CO)C(O)C(O)C1O (stereo not drawn)	CEM cells HIV-1 protection, formazan growth assay	<	5.03
ClCCN1CCOC1=Nc1ccc2c(c1)CCCC2	CEM cells HIV-1 protection, formazan growth assay	=	4.36
Brc1cn2[n+](c1)[B-]n1cc(Br)c[n+]1[B-]2	CEM cells HIV-1 protection, formazan growth assay	=	3.86
